Ref: patent US9174979B2

tested on: human colon cancer SW480 cells; assay: Inhibitory action on the proliferation of SW480 cells; type: cell-based; conditions: 48 hours culture, TetraColor ONE
measurement.type: SW480 proliferation inhibitory action IC50 (µg/mL)
Give the quantity in µg/mL, number only.

Worked examples follow.
>>> print(df.to_string())
                           smiles_structure  unit_symbol  measured_number
0  COc1cc2c3c(c4ccc(O)c(Cl)c4c2cc1OC)C[C@@H]1CCCN1C3.CS(=O)(=O)O        µg/mL           0.0006
1  CC1(C)Oc2cc3c4c(c5ccc(O)cc5c3cc2O1)[C@H](O)[C@@H]1CCCN1C4.Cl        µg/mL            1.955
2  COc1cc2c3c(c4ccc(O)cc4c2cc1OC)[C@H](OC(C)=O)[C@@H]1CCCN1C3.Cl        µg/mL            0.005

Proceed to the following item.
Find the recorded SW480 proliferation inhibitory action IC50 belonging to COc1cc2c3c(c4cc(C)c(O)c(C)c4c2cc1OC)C[C@@H]1CCCN1C3.CS(=O)(=O)O and report it.
0.0321

###

system: human colon cancer SW480 cells; assay: Inhibitory action on the proliferation of SW480 cells; format: cell-based; conditions: Homo sapiens, SW480; 48 hours culture, TetraColor ONE
measurement.type: log10 IC50 (log10 of the value in µg/mL)
Please note: log10 values; quantity IC50; unit µg/mL.

Worked examples follow.
                                   molecule             experimental_target  measurement_type  measured_number
0  COc1cc2c3c(c4ccc(O)cc4c2cc1OC)C(O)C1(C)CCCN1C3.Cl (stereo not shown) [Compound 6]  human colon cancer SW480 cells        log10 IC50             0.49
1  Cl.Oc1ccc2c3c(c4cc5c(cc4c2c1)OCO5)CN1CCC[C@H]1C3 [Compound 13]  human colon cancer SW480 cells        log10 IC50            -1.41
2  Cl.Oc1ccc2c3c(c4ccc(F)cc4c2c1)CN1CCC[C@H]1[C@H]3O [Compound 4]  human colon cancer SW480 cells        log10 IC50            -0.30
3  COc1cc2c3c(c4ccc(O)cc4c2cc1OC)CN1CCC[C@H]1[C@H]3O.Cl [Compound 15]  human colon cancer SW480 cells        log10 IC50            -2.38
4  CCOc1cc2c3c(c4ccc(O)cc4c2cc1OCC)[C@H](O)[C@@H]1CCCN1C3.Cl [Compound 10]  human colon cancer SW480 cells        log10 IC50            -2.17
5  COc1cc2c3c(c4ccc(O)cc4c2c(OC)c1OC)[C@@H](O)[C@H]1CCCN1C3.Cl [Compound 2]  human colon cancer SW480 cells        log10 IC50            -2.44
6  COc1cc2c3c(c4ccc(O)cc4c2cc1OC)C[C@@H]1CCCN1C3.Cl [Compound 11]  human colon cancer SW480 cells        log10 IC50            -2.42
7  Cl.Oc1ccc2c3c(c4ccccc4c2c1)CN1CCC[C@H]1[C@H]3O [Compound 3]  human colon cancer SW480 cells        log10 IC50            -0.39
8  CCOc1cc2c3c(c4ccc(O)cc4c2cc1OCC)C[C@@H]1CCCN1C3.Cl [Compound 14]  human colon cancer SW480 cells        log10 IC50            -1.81
9  COc1cc2c3c(c4ccc(O)cc4c2cc1OC)C[C@H]1CCCN1C3.Cl [Compound 12]  human colon cancer SW480 cells        log10 IC50            -1.30

Find the recorded log10 IC50 belonging to COc1cc2c3c(c4ccc(O)cc4c2c(OC)c1OC)[C@H](O)[C@@H]1CCCN1C3.Cl [Compound 1] and report it.
0.29

Find the recorded log10 IC50 belonging to COc1cc2c3c(c4ccc(O)cc4c2cc1OC)C(N)[C@@H]1CCCN1C3.Cl (stereo partly shown) [Compound 7] and report it.
0.37

Find the recorded log10 IC50 belonging to Cl.Oc1ccc2c3c(c4cc5c(cc4c2c1)OCO5)CN1CCC[C@H]1[C@H]3O [Compound 8] and report it.
-1.57
